# target-desc: EP2 receptor (Homo sapiens, UniProt P43116)
# Construct: SF295 glioblastoma cells express high endogenous EP2 and no EP4
# Sequence (P43116 whole entry): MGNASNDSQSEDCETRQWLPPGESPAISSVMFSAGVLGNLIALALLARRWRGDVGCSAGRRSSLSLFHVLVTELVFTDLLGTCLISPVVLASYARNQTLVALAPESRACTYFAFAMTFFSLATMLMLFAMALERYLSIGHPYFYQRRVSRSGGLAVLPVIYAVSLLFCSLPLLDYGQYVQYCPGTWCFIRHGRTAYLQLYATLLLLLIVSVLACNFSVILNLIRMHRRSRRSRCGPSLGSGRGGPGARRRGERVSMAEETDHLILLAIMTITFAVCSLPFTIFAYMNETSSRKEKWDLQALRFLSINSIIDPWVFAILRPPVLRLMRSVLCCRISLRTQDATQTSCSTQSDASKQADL
# procedure-text: hEP2 cAMP assay (SF295 glioblastoma cells, HTRF cAMP, PGE2 stimulation)
# run-parameters: antagonistic activity
# Description: The antagonistic activities of the compounds of formula (I) on the EP2 and EP4 receptors are also determined in accordance with the following experimental method. Human tumor cell lines expressing endogenously either EP4 or EP2 are used and cAMP accumulation in cells upon PGE2 stimulation is monitored. […] The obtained Delta F (fluorescence) values (665 nm/620 nM) are converted into % cAMP values using the measurements of the cAMP calibrator provided in the kit. […]
Mark 1 for IC50 under 40 nM, -1 if at or over.

Determine whether this compound shows IC50 lower than 40 nM (ties excluded): CSc1cc(-c2cc(NCCc3c(C)sc4c(C)cccc34)ncn2)cc(F)c1C(=O)O [Example 47]
1

Is 40 nM strictly greater than the compound's reported IC50? compound: O=C(O)c1ccc(-c2cc(NCCc3csc4ccccc34)ncn2)cc1OC1CCC1 [Example 132]
-1

Hi there! Is IC50 for CCOc1cc(-c2cc(NCCc3c(C)sc4c(C)cc(F)cc34)ncn2)ccc1-c1cc(O)no1 [Example 202] below 40 nM, do you know?
-1

is_below(IC50, 40 nM) for CCOc1cc(-c2cc(NCCc3c(C)sc4c(OC)ccc(Cl)c34)ncn2)ccc1C(=O)O [Example 57] ?
-1

Is IC50 strictly under 40 nM for the entry CCOc1cc(-c2cc(NCCc3c(Br)sc4c(C)cc(F)cc34)ncn2)ccc1C(=O)O [Example 58] ?
1

Lab log: compare recorded IC50 with 40 nM; is it strictly lower for Cc1cc(-c2cc(NCCc3c(C)oc4ccccc34)ncn2)sc1C(=O)O [Example 6] ?
1

Quick check: IC50 of CCOc1cc(-c2cc(NCCc3c(C#N)sc4c(C)cc(F)cc34)ncn2)ccc1CC(=O)O [Example 104] under 40 nM?
-1
